molecular target: VibE (Vibrio cholerae serotype O1); assay: biochemical; format: binding
Sequence (O07899 whole entry): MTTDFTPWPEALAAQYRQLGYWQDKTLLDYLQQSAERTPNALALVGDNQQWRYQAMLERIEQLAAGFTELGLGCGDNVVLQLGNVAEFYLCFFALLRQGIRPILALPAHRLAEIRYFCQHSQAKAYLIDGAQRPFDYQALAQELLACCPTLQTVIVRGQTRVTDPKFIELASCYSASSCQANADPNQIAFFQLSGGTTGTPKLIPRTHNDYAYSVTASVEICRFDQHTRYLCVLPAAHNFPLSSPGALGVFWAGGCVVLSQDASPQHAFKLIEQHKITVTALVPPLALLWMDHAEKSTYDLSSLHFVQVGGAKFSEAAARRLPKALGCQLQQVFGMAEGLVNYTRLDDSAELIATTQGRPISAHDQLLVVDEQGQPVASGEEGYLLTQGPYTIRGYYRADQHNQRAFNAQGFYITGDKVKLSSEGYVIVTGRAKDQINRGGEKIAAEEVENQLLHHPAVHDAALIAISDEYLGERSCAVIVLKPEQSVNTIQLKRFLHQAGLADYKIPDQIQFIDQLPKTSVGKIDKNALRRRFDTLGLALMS
reportedEndpoint: pKd
When answering, recall that pKd equals minus log10 of the concentration in mol/L, and write that number alone.

Worked cases, answers included:
compound	pKd
O=C(O)c1ccccc1O [compound 20, salicylic acid]	4.44
Nc1ncnc2c1ncn2[C@@H]1O[C@H](COP(=O)(O)O)[C@@H](O)[C@H]1O [compound 22, adenosine monophosphate]	4.92

Now take the following compound into account.
Req: Look at this compound and give its reported pKd. O=C(O)c1cccc(O)c1O [compound 21, 2,3-dihydroxybenzoic acid]
Resp: 5.79

----------
molecular target: BasE (Acinetobacter baumannii); test: biochemical; assay type: binding; conditions: Calculated Ligand-Protein Dissociation Constant KD2
Sequence (A0A0D5YGP3 1-542): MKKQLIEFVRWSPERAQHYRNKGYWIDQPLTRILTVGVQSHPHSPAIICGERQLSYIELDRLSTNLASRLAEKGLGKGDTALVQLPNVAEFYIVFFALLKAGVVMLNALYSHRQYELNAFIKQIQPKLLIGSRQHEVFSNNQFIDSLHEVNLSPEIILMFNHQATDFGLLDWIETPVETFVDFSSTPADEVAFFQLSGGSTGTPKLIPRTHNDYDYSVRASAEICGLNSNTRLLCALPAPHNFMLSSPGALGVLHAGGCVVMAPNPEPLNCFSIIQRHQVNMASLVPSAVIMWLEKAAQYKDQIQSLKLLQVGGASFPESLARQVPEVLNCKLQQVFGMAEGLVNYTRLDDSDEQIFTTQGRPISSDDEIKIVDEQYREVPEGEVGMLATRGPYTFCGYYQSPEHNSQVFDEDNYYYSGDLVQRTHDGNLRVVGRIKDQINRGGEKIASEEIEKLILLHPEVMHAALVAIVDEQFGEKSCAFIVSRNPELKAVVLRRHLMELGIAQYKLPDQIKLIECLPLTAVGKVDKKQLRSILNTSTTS
Property: Kd; scope: individual molecules
# unit: nM | format: bare number

Use the examples below as a reference point.
molecule	measuredOn	reportedEndpoint	assayValue
Nc1ncnc2c1ncn2[C@@H]1O[C@H](COS(=O)(=O)NC(=O)c2ccccc2O)[C@@H](O)[C@H]1O [compound 4, 5′-O-[N-(salicyl)sulfamoyl]adenosine]	BasE (Acinetobacter baumannii)	Kd	16.7
O=C(O)c1cccc(O)c1O [compound 21, 2,3-dihydroxybenzoic acid]	BasE (Acinetobacter baumannii)	Kd	2630

Read the next record carefully.
Req: Which value of Kd has been reported for "O=C(O)c1ccccc1O" in the records?
Resp: 57500
